A short record of Ki observed with human AChE (Homo sapiens) follows.
Sequence (P22303 32-614): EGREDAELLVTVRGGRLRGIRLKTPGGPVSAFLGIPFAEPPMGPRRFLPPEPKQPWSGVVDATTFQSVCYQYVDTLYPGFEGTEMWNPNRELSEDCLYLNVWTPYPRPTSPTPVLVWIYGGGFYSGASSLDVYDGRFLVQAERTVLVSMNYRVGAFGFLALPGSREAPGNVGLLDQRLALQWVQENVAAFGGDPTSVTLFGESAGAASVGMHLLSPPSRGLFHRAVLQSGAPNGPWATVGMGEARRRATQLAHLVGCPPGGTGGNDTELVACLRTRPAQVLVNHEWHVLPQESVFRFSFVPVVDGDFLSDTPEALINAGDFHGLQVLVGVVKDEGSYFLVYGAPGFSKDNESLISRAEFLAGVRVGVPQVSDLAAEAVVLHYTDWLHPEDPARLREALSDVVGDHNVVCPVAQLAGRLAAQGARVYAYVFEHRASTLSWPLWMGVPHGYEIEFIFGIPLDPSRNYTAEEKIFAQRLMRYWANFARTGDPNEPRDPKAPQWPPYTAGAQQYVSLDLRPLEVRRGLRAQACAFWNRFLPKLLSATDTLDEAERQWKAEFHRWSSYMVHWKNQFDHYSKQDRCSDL
Please respond with the number in µM and leave the unit unwritten.

Would you please look over these solved cases?
1) N#Cc1ccc(/C=C\c2ccsc2/C=N/O)cc1 [cis,syn-21] :: 171
2) Cc1ccc(/C=C\c2ccoc2/C=N/O)cc1 [cis,syn-14] :: 627

Below: the item to evaluate.
Can you look up the measured Ki of N#Cc1ccc(/C=C\c2ccoc2/C=N/O)cc1 [cis,syn-17] for me?
544

---

Consider molecules characterized by their Ki with human BChE (Homo sapiens, UniProt P06276).
Sequence (P06276 29-602): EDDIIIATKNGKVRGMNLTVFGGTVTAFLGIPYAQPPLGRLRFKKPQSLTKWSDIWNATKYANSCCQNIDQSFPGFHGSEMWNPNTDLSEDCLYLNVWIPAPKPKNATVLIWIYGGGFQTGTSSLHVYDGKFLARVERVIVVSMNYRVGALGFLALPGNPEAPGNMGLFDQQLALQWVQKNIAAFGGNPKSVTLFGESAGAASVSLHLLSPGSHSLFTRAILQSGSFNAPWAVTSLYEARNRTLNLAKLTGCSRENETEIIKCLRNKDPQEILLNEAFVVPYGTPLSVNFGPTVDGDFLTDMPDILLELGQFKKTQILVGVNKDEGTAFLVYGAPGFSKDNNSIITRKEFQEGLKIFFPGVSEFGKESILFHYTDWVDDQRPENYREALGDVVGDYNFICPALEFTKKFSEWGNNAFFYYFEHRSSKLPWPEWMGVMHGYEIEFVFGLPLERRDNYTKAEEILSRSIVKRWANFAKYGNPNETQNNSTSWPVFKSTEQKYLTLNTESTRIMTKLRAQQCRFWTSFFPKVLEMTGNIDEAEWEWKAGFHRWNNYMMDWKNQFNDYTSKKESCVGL
Please state the figure in µM; there is no need to write the unit.

Below are worked cases with known answers.
1) CCCn1cc(C=Cc2ccc(C=NO)s2)nn1 [trans-7] :: 49
2) Cc1ccc(/C=C/c2ccc(/C=N/O)o2)cc1 [trans,syn-10] :: 38
3) O=[N+]([O-])c1ccc(-n2cc(C=NO)nn2)cc1 [compound 3] :: 303
4) ON=Cc1cn(Cc2ccc(F)cc2)nn1 [compound 1] :: 503
5) Cc1ccc(/C=C\c2ccsc2/C=N\O)cc1 [cis,anti-18] :: 760
6) N#Cc1ccccc1/C=C\c1ccc(/C=N/O)s1 [cis,syn-5] :: 17
7) ON=Cc1cn(Cc2ccc(Cl)cc2)nn1 [compound 2] :: 24
8) O=[N+]([O-])c1ccc(-n2cc(C=Cc3ccc(C=NO)s3)nn2)cc1 [trans-8] :: 143

Param item = O/N=C/c1ccc(/C=C\c2ccc(Cl)cc2)o1 [cis,syn-12] ; retrieve measured Ki.
147

# lookup: Ki of Cc1ccc(/C=C\c2ccoc2/C=N/O)cc1 [cis,syn-14]
93

// returns reported Ki for input O/N=C\c1ccc(/C=C/c2ccco2)o1 [trans,anti-6]
123

Which Ki value belongs to Cc1ccccc1/C=C/c1oc2ccc3ccccc3c2c1/C=N/O [trans,syn-9] ?
303

---

Target: human AChE (Homo sapiens)
pKi: −log10 of the molar value.
Lab note: compare pKi against 4. Equal or greater, write T. Smaller, write F.

Below, 5 molecules whose answers are already recorded.
1) Cc1ccc(/C=C/c2ccc(/C=N\O)o2)cc1 [trans,anti-10] :: F
2) O/N=C/c1occc1/C=C/c1ccc(Cl)cc1 [trans,syn-16] :: F
3) O/N=C\c1ccc(/C=C/c2ccccc2O)s1 [trans,anti-4] :: F
4) N#Cc1ccc(/C=C\c2ccsc2/C=N\O)cc1 [cis,anti-21] :: F
5) N#Cc1ccc(/C=C/c2ccoc2/C=N/O)cc1 [trans,syn-17] :: T

Would you say Cc1ccc(/C=C/c2ccsc2/C=N/O)cc1 [trans,syn-18] shows pKi at minimum 4?
T

// inclusive: pKi at least 4? input: CCCn1cc(C=Cc2ccc(C=NO)s2)nn1 [trans-7]
F

---

Test: MTS cytotoxicity assay, 24-h exposure of liver cell line
Settings: human, HepG2 cells, IC50 HepG2 (cytotoxicity), tested 3 to 400 μM
VALUE_TYPE: IC50 at 24 h

1) N#Cc1ccc(/C=C/c2ccoc2/C=N/O)cc1 [trans,syn-17] :: > 400 µM
2) Cc1ccc(/C=C/c2ccoc2/C=N/O)cc1 [trans,syn-14] :: > 400 µM
3) O/N=C\c1ccc(/C=C/c2ccccc2O)s1 [trans,anti-4] :: 191 µM

Here is another compound to look at.
State the recorded IC50 at 24 h for this entry: COc1ccc(/C=C\c2csc(/C=N/O)c2)cc1 [cis,syn-19′]
> 400 µM
